Examples of compounds with documented Solubility follow.
# Assay Info: Solubility in PBS
# Type: physicochemical
The reply should contain only the number, in µM.

Worked cases, Solubility given:
{"columns": ["Compound", "Solubility [µM]"],
 "data": [
  ["CC(=O)N1CCC[C@]12CC=CCCCC1(CCCC=CCCCOC(=O)N3CC[C@@](C(=O)N[C@@H](Cc4ccccc4C(F)(F)F)C(=O)N[C@@H](Cc4csc5ccccc45)C(=O)N[C@@H](CO)C(N)=O)(C3)NC(=O)[C@H](CC(C)C)NC(=O)[C@H](Cc3ccccc3)NC(=O)[C@H](C)NC(=O)[C@H](C)NC(=O)[C@H](Cc3cccc(C(=O)O)c3)NC(=O)[C@H](CC(=O)O)NC1=O)NC(=O)[C@H](CC(C)(C)C)NC(=O)[C@H](CC(=O)O)NC2=O (stereo partly drawn) [I-1336]", 10],
  ["CC(=O)N1CCC[C@]12CC=CCCCC1(CCCC=CCCCCCC[C@@](C)(C(=O)N[C@@H](Cc3ccsc3)C(=O)N[C@@H](Cc3csc4ccccc34)C(=O)N[C@@H](Cc3c[nH]nn3)C(N)=O)NC(=O)[C@H](CC(C)C)NC(=O)[C@H](Cc3ccccc3)NC(=O)[C@H](C)NC(=O)[C@H](C)NC(=O)[C@H](CC(=O)O)NC(=O)[C@H](CC(=O)O)NC1=O)NC(=O)[C@H](CC(C)(C)C)NC(=O)[C@H](CC(=O)O)NC2=O (stereo partly drawn) [I-1193]", 10]
]}

As a next step, examine the compound that follows.
Please look at this compound and report its Solubility: CC(=O)N1CCC[C@]12CC=CCCCC1(CCCC=CCCCOC(=O)N3CC[C@@](C(=O)N[C@@H](Cc4ccccc4)C(=O)N[C@@H](Cc4csc5ccccc45)C(=O)N[C@H](C(N)=O)[C@@H](C)O)(C3)NC(=O)[C@H](CC(C)C)NC(=O)[C@H](Cc3ccccc3)NC(=O)[C@H](C)NC(=O)[C@H](C)NC(=O)[C@H]([C@@H](C)O)NC(=O)[C@H](CC(N)=O)NC1=O)NC(=O)[C@H](CC(C)(C)C)NC(=O)[C@H](CC(=O)O)NC2=O (single isomer, unassigned) [I-1299] 10
